target: CYP2C19 (Homo sapiens); construct: purchased Corning; host or cells: baculovirus-transfected insect cell microsomes (Supersomes); test: Monooxygenases activity screening, CYP2C19; format: in vitro ADME; parameters: key: +, detected; –: −, not detected; conditions: 25 μM 4F-MDMB-BINACA, 50 pmol/ml enzyme, 30 min, 37°C, duplicate
Sequence (P33261 whole entry): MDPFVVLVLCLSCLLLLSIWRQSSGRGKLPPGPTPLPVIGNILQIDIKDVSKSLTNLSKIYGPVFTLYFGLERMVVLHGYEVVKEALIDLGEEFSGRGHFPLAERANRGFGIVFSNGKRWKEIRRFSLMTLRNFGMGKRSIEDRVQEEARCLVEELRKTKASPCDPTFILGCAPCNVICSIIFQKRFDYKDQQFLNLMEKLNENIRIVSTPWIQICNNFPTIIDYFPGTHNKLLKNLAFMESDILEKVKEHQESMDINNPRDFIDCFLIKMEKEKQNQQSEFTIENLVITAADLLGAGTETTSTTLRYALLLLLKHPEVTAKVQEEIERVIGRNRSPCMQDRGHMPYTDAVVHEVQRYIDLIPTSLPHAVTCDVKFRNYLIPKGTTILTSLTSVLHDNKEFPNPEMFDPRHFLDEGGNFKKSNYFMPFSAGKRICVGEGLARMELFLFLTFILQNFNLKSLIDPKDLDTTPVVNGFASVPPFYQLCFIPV
measure_name: Detection of metabolite in incubation with CYP2C19

Some solved cases for reference:
Entry COC(=O)[C@@H](NC(=O)c1nn(CCCCO)c2ccccc12)C(C)(C)C [MB11] — recorded Detection of metabolite in incubation with CYP2C19 = –

Entry COC(=O)[C@@H](NC(=O)c1n[nH]c2ccccc12)C(C)(C)C [MB4] — recorded Detection of metabolite in incubation with CYP2C19 = +

Entry O=C(O)c1nn(CCCCF)c2ccccc12 [MB1] — recorded Detection of metabolite in incubation with CYP2C19 = –

Entry COC(=O)[C@@H](NC(=O)c1nn(CCCCF)c2ccccc12)C(C)(C)CO [MB16] — recorded Detection of metabolite in incubation with CYP2C19 = –

---
Entry CC(C)(C)C(NC(=O)c1nn(CCCCF)c2ccccc12)C(=O)O (centres unmarked) [MB8] — recorded Detection of metabolite in incubation with CYP2C19 = –
